Tested system: GSK-3β (AA 1-420) (Homo sapiens)
Sequence (P49841 whole entry, the tested form may be a part): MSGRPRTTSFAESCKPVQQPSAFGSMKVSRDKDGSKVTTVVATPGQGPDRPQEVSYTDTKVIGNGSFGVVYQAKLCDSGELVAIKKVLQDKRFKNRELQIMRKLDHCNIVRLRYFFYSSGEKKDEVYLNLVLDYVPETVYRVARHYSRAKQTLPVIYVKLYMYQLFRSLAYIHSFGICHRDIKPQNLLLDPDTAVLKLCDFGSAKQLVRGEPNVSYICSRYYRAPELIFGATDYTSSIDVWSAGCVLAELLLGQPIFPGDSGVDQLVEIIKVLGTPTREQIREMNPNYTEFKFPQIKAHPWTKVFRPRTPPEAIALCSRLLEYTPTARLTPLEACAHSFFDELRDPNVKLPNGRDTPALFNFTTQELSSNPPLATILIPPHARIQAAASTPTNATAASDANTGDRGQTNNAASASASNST
Measured parameter: Ki

In: What does the data say about its Ki? Entry: Cc1cc(Nc2nc(N3CCC(C)CC3)nc3nc[nH]c23)n[nH]1
Out: 100 to 1000 nM
